System: zfTac3rb
PROTOCOL: Receptor transactivation assay, SRE-Luc reporter (PKC activation), COS-7 cells expressing zfTac3rb
Type: cell-based, zebrafish
MEASUREMENT_CONDITIONS: Table 5; COS-7 cells, SRE-Luc follows PKC activation; mean ± SEM; read-out: EC50 SRE-Luc zfTac3rb
*1 amine or outer side, *2 acyl side, *3 side chain or, on linkers, in order; H or OH if unused. Where a SMILES comes first, the peptide text is derived from it. [ ]: non-standard residue; d: D form. NMeF = CN[C@@H](Cc1ccccc1)C(=O)O; Suc = O=C(CCC(=O)[*:2])[*:1]
Would you kindly list EC50 for each of these molecules?
Express it in pM; write the number only.

Task item: Look up and report measured EC50 for this entry: CSCC[C@H](NC(=O)[C@H](CC(C)C)NC(=O)CNC(=O)[C@H](Cc1ccccc1)N(C)C(=O)[C@H](Cc1ccccc1)NC(=O)[C@H](CC(=O)O)NC(=O)CCC(=O)O)C(N)=O [Senktide, Succ-Asp-Phe-N(Me)Phe-Gly-Leu-Met-NH2, reference compound] (Suc-DF[NMeF]GLM-NH2)
Reply: 2720

Task item: Report EC50, nothing else, for this molecule: CC[C@H](C)[C@H](NC(=O)[C@H](CC(=O)O)NC(=O)[C@H](CC(N)=O)NC(=O)[C@@H](N)Cc1ccc(O)cc1)C(=O)N[C@@H](CC(=O)O)C(=O)N[C@@H](Cc1ccc(O)cc1)C(=O)N[C@@H](CC(=O)O)C(=O)N[C@@H](CO)C(=O)N[C@@H](Cc1ccccc1)C(=O)N[C@H](C(=O)NCC(=O)N[C@@H](CC(C)C)C(=O)N[C@@H](CCSC)C(N)=O)C(C)C [zfNKF] (H-YNDIDYDSFVGLM-NH2)
Reply: 360

Task item: Supply reported EC50 belonging to this molecule: CSCC[C@H](NC(=O)[C@H](CC(C)C)NC(=O)CNC(=O)[C@@H](NC(=O)[C@H](Cc1ccccc1)NC(=O)[C@H](Cc1ccccc1)NC(=O)[C@H](CC(=O)O)NC(=O)[C@H](Cc1c[nH]cn1)NC(=O)[C@H](CCSC)NC(=O)[C@@H](N)CC(=O)O)C(C)C)C(N)=O [huNKB, reference compound]
Reply: 820
